normalized growth values by entry
- Test protocol: chemical genetic growth profiling, strain panel (AID 1159580);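 note: tested at 20 µM; growth read once vehicle control cultures reached saturation at 30 °C; 1 = growth at the plate median or of vehicle wells; lower values mean less growth of the strain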
- Study conditions: S. cerevisiae deletion strains, growth OD, locus YPL241C, strain CIN2, hits give low values
In all, about 5,500 compounds went through this assay and about 2,000 (36%) were called active. Roughly 18% stayed inconclusive and do not appear here. The list shows a part of the results.

| Compound | normalized growth |
| --- | --- |
| c1coc(CNc2ncnc3nc[nH]c23)c1 | 1 |
| Cc1ncc([N+](=O)[O-])n1CCO | 0.982 |
| Cn1c([N+](=O)[O-])cnc1COC(N)=O | 1.01 |
| CSc1nc(N)c2ncn([C@@H]3O[C@H](COP(=O)(O)OP(=O)(O)O)[C@H](O)C3O)c2n1 (some centres not stated) | 1 |
| N#C/C(=C\c1ccc(O)cc1)C(=O)O | 0.985 |
| COc1ccc2[nH]c(I)c(CCNC(C)=O)c2c1 | 1.01 |
| Nc1ncnc2nc[nH]c12 | 1.01 |

---

- Test protocol: chemical genetic growth profiling, strain panel (AID 1159580)
- Study conditions: S. cerevisiae deletion strains, growth OD, locus YLR330W, strain CHS5, hits give low values
Hit rate of the full screen: of about 5,500 compounds, about 2,000 (36%) were called active. About 18% were inconclusive and are not listed. This is one part of the list.
Parameter measured: normalized growth

| Compound | Parameter measured | Result value |
| --- | --- | --- |
| CCCCC(=O)O[C@H]1CCC2C3CCc4cc(O)ccc4C3CC[C@@]21C (some centres undefined) | normalized growth | 0.984 |
| O=c1[nH]c2ccccc2n1C1CCN(CCCC(c2ccc(F)cc2)c2ccc(F)cc2)CC1 | normalized growth | 0.995 |
| COc1ccc(Cc2nccc3cc(OC)c(OC)cc23)cc1OC | normalized growth | 1.01 |
| CC1=C(C(=O)O)N2C(=O)[C@@H](NC(=O)[C@H](N)C3=CCC=CC3)C2SC1 (some centres undefined) | normalized growth | 0.986 |

---

- Test protocol: chemical genetic growth profiling, strain panel (AID 1159580)
- Study conditions: S. cerevisiae deletion strains, growth OD, locus YLR357W, strain rsc2, hits give low values
Among all 5,500 compounds or so, about 2,000 (36%) were called active. About 18% were inconclusive and are not listed. The list shows a part of the results.
Mark yes only when normalized growth stays strictly below 1. Values equal to the cut-off are no.

| Compound | Class |
| --- | --- |
| NCCS | yes |
| CC(C(=O)O)c1ccc(N2Cc3ccccc3C2=O)cc1 (stereo unspecified) | yes |
| Cc1c(N(C)CS(=O)(=O)O)c(=O)n(-c2ccccc2)n1C | no |

---

- Test protocol: chemical genetic growth profiling, strain panel (AID 1159580);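 note: tested at 20 µM; growth read once vehicle control cultures reached saturation at 30 °C; 1 = growth at the plate median or of vehicle wells; lower values mean less growth of the strain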
- Study conditions: S. cerevisiae deletion strains, growth OD, locus YDR069C, strain doa4, hits give low values
The whole screen tested about 5,500 compounds, of which about 2,000 (36%) were called active. Not shown: some 18% with an inconclusive outcome. The list shows a part of the results.

| Compound | normalized growth |
| --- | --- |
| C[C@]12C=CC(=O)C=C1CCC1C2C(=O)C[C@@]2(C)C1CC[C@]2(O)C(=O)CO (some centres not stated) | 0.98 |
| Cn1cnc([N+](=O)[O-])c1Sc1ncnc2nc[nH]c12 | 1.02 |
| C=C1CC2C(CCC3(C)C(=O)CCC23)C2(C)C=CC(=O)C=C12 (configuration not stated) | 0.944 |
| COc1ccc2[nH]cc(CCNC(C)=O)c2c1 | 0.958 |
| OC[C@@H](O)C(O[C@@H]1O[C@H](CO)[C@H](O)[C@H](O)[C@H]1O)[C@H](O)[C@@H](O)CO (some centres not stated) | 0.981 |
| CC(=O)OC1CCC23C(=O)OC45CCC(C6=CC(=O)OC6)C4(C)CCC2C5CCC3(O)C1 (configuration not stated) | 0.963 |
| COc1cc(OC)c(C(C)=O)c(O)c1C | 0.948 |
| CSCCC(NC=O)C(=O)NC(CC(C)C)C(=O)NC(Cc1ccccc1)C(=O)O (configuration not stated) | 1 |
| Cc1nccc2c1[nH]c1ccccc12 | 0.941 |
| c1ccc2c(c1)[nH]c1cnccc12 | 0.977 |
| O=C(O)c1cccc(O)c1O | 1.02 |
| COc1cc(O)c(C)c(O)c1 | 1.01 |

---

- Test protocol: chemical genetic growth profiling, strain panel (AID 1159580);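 note: tested at 20 µM; growth read once vehicle control cultures reached saturation at 30 °C; 1 = growth at the plate median or of vehicle wells; lower values mean less growth of the strain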
- Study conditions: S. cerevisiae deletion strains, growth OD, locus YNL153C, strain GIM3, hits give low values
Screen size: about 5,500 compounds; about 2,000 (36%) were called active. Roughly 18% stayed inconclusive and do not appear here. The list shows a part of the results.
Mark YES only when normalized growth stays strictly below 1. Values equal to the cut-off are NO.

| Compound | Class |
| --- | --- |
| Cc1c2ccncc2c(C)c2c1[nH]c1ccccc12 | YES |
| CCCCC/C=C\C/C=C\C/C=C\C/C=C\CCCC(=O)NCC(=O)O | NO |
| COC1(C2=NCCN2)COc2ccccc2O1 (stereo unspecified) | NO |

---

- Test protocol: chemical genetic growth profiling, strain panel (AID 1159580);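 note: tested at 20 µM; growth read once vehicle control cultures reached saturation at 30 °C; 1 = growth at the plate median or of vehicle wells; lower values mean less growth of the strain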
- Study conditions: S. cerevisiae deletion strains, growth OD, locus YPL153C, strain RAD53
The campaign covered roughly 5,500 compounds. About 2,000 (36%) were called active. Another 18% or so got no clear call; they are omitted. Rule as the data show it: active = normalized growth mostly below about 0.91 (no sharp cut-off); inconclusive = no clear call, values can overlap the other calls; inactive = mostly above about 0.92. This is one part of the list.
Outcome codes: 1 (yes) = active, 0 (no) = inactive

| Compound | Class |
| --- | --- |
| CC(NC(=S)Nc1ccc(Oc2ccc(Cl)cc2)cc1)c1ccccc1 (stereo not drawn) | 0 (no) |
| Cc1nc([N+](=O)[O-])cn1CC(=O)c1ccc(Cl)cc1 | 0 (no) |
| COC(=O)c1ccc(Oc2c(C(F)(F)F)oc3cc(O)ccc3c2=O)cc1 | 0 (no) |
| CSc1nc(Sc2n[nH]c(-c3ccccc3)n2)cc(Sc2n[nH]c(-c3ccccc3)n2)n1 | 0 (no) |
| N/C(=N/OC(=O)c1ccccc1Cl)c1ccc2nonc2c1 | 0 (no) |
| Cc1nc(C(F)(F)F)ccc1-c1nnc(SC(=O)c2ccc(Cl)cc2)o1 | 0 (no) |
| O=C1OC(Nc2ccccc2SCc2ccccc2Cl)c2ccccc21 (stereo not drawn) | 0 (no) |
| CC1CCc2c(sc3ncnc(Sc4ccccc4)c23)C1 (stereo not drawn) | 0 (no) |
| N#C/C(=N/Nc1ccc(C(F)(F)F)cc1)C(=O)C1CC1 | 0 (no) |
| N#C/C(=N/Nc1ccc(Cl)cc1)C(N)=S | 1 (yes) |
| FC(F)(F)c1ccc(C2Sc3ccccc3N=C3c4ccccc4CC32)cc1 (stereo not drawn) | 0 (no) |
| CN(C)c1nc(=S)ss1 | 1 (yes) |
| O=C(SCc1c(Cl)cccc1Cl)c1ccc([N+](=O)[O-])o1 | 1 (yes) |
| N#CC(C#N)=NNc1ccc(C(F)(F)F)cc1 | 1 (yes) |
| CCCCCc1ccc(S(=O)(=O)Nc2ncc(C)cc2Br)cc1 | 0 (no) |
| Cc1oc(-c2ccc(Cl)cc2)cc1C(=O)N1CCN(c2ccc(C(F)(F)F)cn2)CC1 | 0 (no) |
| O=C(c1ccc(Cl)cc1)N1CCN(c2ccc(C(F)(F)F)cn2)CC1 | 0 (no) |
| O=C(Oc1ccc(C2SCCS2)cc1)c1cccs1 | 0 (no) |
| N#CC(C#N)=NNc1cc(C(F)(F)F)ccc1OCC(F)(F)F | 0 (no) |
| O=C(N/N=C\c1cc(Cl)cc(Cl)c1O)c1ccccc1Oc1ccccc1 | 0 (no) |
| Fc1ccc(Nc2nc(-c3ccc(F)c(F)c3)cs2)c(F)c1 | 1 (yes) |
| CC(C)(C)c1cc(C(=O)/C(C#N)=N\Nc2ccc(Cl)cc2)no1 | 1 (yes) |
| CSC(SC)=C(C#N)C(=O)c1ccccc1Cl | 1 (yes) |
| CC(Oc1ccc(Cl)cc1Cl)C(=O)NNC(=S)Nc1ccccc1 (stereo not drawn) | 0 (no) |
| CC(/C=C/c1ccccc1)=N/OC(=O)c1ccccc1Cl | 0 (no) |
| COc1cc(OC)cc(/C(N)=N\O)c1 | 0 (no) |
| COc1cccc(C(=O)C(C#N)=C(SC)SC)c1 | 1 (yes) |
| CN(NC(=S)Nc1cc(Cl)ccc1Cl)c1ccc(C(F)(F)F)cc1[N+](=O)[O-] | 0 (no) |
| Cc1ccc(C(=O)Nc2ccc3ccccc3n2)cc1 | 0 (no) |
| N/C(=N/OC(=O)c1ccccc1Cl)c1cccc(CS(=O)(=O)c2ccc(Cl)cc2)c1 | 0 (no) |
| CC(=O)Oc1ccc2c(=O)c(Oc3ccc(Cl)cc3)c(C)oc2c1 | 0 (no) |
| O=C(Nc1ccc(OC(F)(F)F)cc1)Nc1cncc(C(F)(F)F)c1 | 0 (no) |
| N#C/C(=N/Nc1ccc(Cl)cc1)C(=O)C1CC1 | 1 (yes) |
| O=S(=O)(Nc1cc(-c2cccs2)nn1-c1ccc(I)cc1)c1cccc(F)c1 | 0 (no) |
| O=S(=O)(Nc1ccc(-n2nc(C(F)(F)F)cc2-c2cccs2)cc1)c1ccc(F)cc1 | 0 (no) |
| CCC1(c2ccccc2)OC(c2cc(Cl)cc(Cl)c2O)Nc2ccccc21 (stereo not drawn) | 1 (yes) |
| O=C(OCc1ccc(Oc2ccc(Cl)cc2Cl)c([N+](=O)[O-])c1)c1ccc([N+](=O)[O-])o1 | 0 (no) |
| C(=NC(N=Cc1ccccc1)c1ccccc1)c1ccccc1 (stereo not drawn) | 0 (no) |
